System: OVCAR-8 ovarian
measurementProtocol: NCI-60 one-dose screen, 48 h (100 = growth as untreated, 0 = no growth, -100 = all killed)
measurementContext: 10 µM unless noted
Procedure: Growth inhibition of the OVCAR-8 human tumor cell line is measured as a screen for anti-cancer activity. Cells are grown in 96 well plates and exposed to the test compound for 48 hours. Compounds are tested at a single concentration, which is 10^-5 M for most compounds. The reported endpoint is percent growth (GI% or GIPRCNT), where numbers from 0 - 100% represent growth inhibition, and numbers from -100% - 0 represent cell death. For example, a value of 40 represents 60% growth inhibition. […]
Compounds without any hit were thinned out: in the full panel of roughly 83,000, 20% have a hit.
propertyLabel: growth (%)
Field: numeric (%). Do not append units.

// returns reported growth for input COc1ccc([As]=[As]c2ccc(OC)c(NCS(=O)(=O)O)c2)cc1NCS(=O)(=O)O (stereo not drawn)
44

// returns reported growth for input `COC(=O)[C@]12CCC(C)(C)C[C@H]1[C@H]1C(=O)C[C@@H]3[C@@]4(C)C[C@@]5(CC(C)(C)[C@@H]4CC[C@@]3(C)[C@]1(C)CC2)OO[C@@](C)(C(F)(F)F)O5`
97.6

// returns reported growth for input `O=C1NC(=O)C(=Cc2cn(CCCCCCn3c4ccccc4c(=O)c4ccccc43)c3ccccc23)C(=O)N1`
91.8

// returns reported growth for input `CC[C@H](C)[C@@H]1OC(=O)C(C)(C)[C@H](O)[C@H](Cc2ccccc2)OC(=O)[C@H](C(C)C)OC(=O)[C@@H](NC(=O)c2cccc(NC=O)c2O)[C@@H](C)OC1=O`
51.3

// returns reported growth for input `Brc1ccc2c(c1)c(-c1nc(-c3c[nH]c4ncccc34)cs1)cn2CCN1CCOCC1`
45.6

// returns reported growth for input O=C1CC2(CC3(Cl)C(Cl)=C(Cl)C2(Cl)C3(Cl)Cl)C(=O)O1 (stereo not drawn)
104

// returns reported growth for input `COc1cccc2c1c(C(=O)C(=O)Nc1ccn[nH]1)cn2Cc1ccc(F)cc1`
101

// returns reported growth for input `Cc1ccc(S(=O)(=O)C(Cl)(Cl)Cl)cc1`
96.2

// returns reported growth for input O=C1CCC2(O)[C@@H]3Cc4ccc(O)c5c4[C@]2(CCN3Cc2ccoc2)C1O5 (stereo partly drawn)
102

// returns reported growth for input N#CC1C(C#N)C2CCC1C1C2N1c1ccccc1 (stereo not drawn)
114

// returns reported growth for input `Cc1cc(N(CCCl)CCCl)ccc1C=Nc1cccnc1`
78.2

// returns reported growth for input `CCCCCC1(CCBr)C(=O)NC(=O)NC1=O`
97.3

// returns reported growth for input `COc1cc(/C=C/[N+](=O)[O-])cc(OC)c1`
13.8

// returns reported growth for input `CC(C)=CCC/C(C)=C/C=N\N=C(/N)N[N+](=O)[O-]`
104

// returns reported growth for input O=C1C2C(C(=O)[N]1[Hg][c]1ccccc1)C1(Cl)C(Cl)=C(Cl)C2(Cl)C1(Cl)Cl (stereo not drawn)
-47.4

// returns reported growth for input `C#Cc1ccc2c(c1)C(c1ccccc1)=NCC(=O)N2C`
63.3

// returns reported growth for input `C=C1[C@@H](C)[C@H]2[C@H](Cc3ccccc3)NC(=O)[C@]23[C@@H](O)/C=C/[C@@](C)(O)C(=O)[C@@H](C)C/C=C/[C@H]3[C@@H]1O`
69.3

// returns reported growth for input `COC(=O)CCC1=C(C)c2cc3[n-]c(cc4nc(cc5[n-]c(cc1n2)c(CCC(=O)OC)c5C)C=C4C)cc3C.[Cd+2]`
68.7
